# Tested on: E. multilocularis protoscoleces
# METHOD NOTES: Cestode motility assay on protoscoleces
# Assay type: cell-based
# EXPERIMENTAL CONTEXT: Echinococcus multilocularis, read-out: EC50, motility of E. multilocularis protoscoleces
ATTRIBUTE MEASURED: pEC50
Units for pEC50: none; it is -log10 of a concentration expressed in mol/L.

Lookup: So what pEC50 did O=C(C1CCCCC1)N1CC(=O)N2CCc3ccccc3[C@@H]2C1 [(R)-PZQ] get with E. multilocularis protoscoleces?
Found: 8.11
